From: ChEMBL document CHEMBL2146470

# test method notes: Drug uptake in tumor of nude NCr mouse xenografted with human MDA-MB-231T cells at 5 mg/kg, po measured after 24 hrs by LC-MS analysis
# Assay type: ADME, organism-based
# Set-up: dose 5 mg/kg, route oral
# condition summary: read-out: Drug uptake
assay readout: concentration at 24 h (nM)

compound: O=C(c1ccc(F)c(F)c1Nc1ccc(I)cc1F)N1CC(O)([C@@H]2CCCCN2)C1 [COBIMETINIB]
numeric result: 530

* * *

# test method notes: Drug uptake in brain of nude NCr mouse xenografted with human MDA-MB-231T cells at 10 mg/kg, po measured after 24 hrs by LC-MS analysis
# Assay type: ADME, organism-based
# Parameters: dose 10 mg/kg, route oral
# condition summary: read-out: Drug uptake

mol smiles: O=C(c1ccc(F)c(F)c1Nc1ccc(I)cc1F)N1CC(O)([C@@H]2CCCCN2)C1
concentration at 24 h: < 4 nM

* * *

Recorded log10 AUCt/dose values for a group of molecules are listed next.
# System: Rattus norvegicus
# test method notes: Dose normalised AUC (0 to t) in Sprague-Dawley rat at 5 mg/kg, po
# Assay type: ADME, organism-based
# Set-up: dose 5 mg/kg, route oral
# condition summary: in vivo
assay readout: log10 AUCt/dose (log10 of the value in µM·h/mg/kg)

mol smiles: NCC1(O)CN(C(=O)c2ccc(F)c(F)c2Nc2ccc(I)cc2F)C1
study system: Rattus norvegicus
log10 AUCt/dose: 0.20

mol smiles: C[C@H](N)C1(O)CN(C(=O)c2ccc(F)c(F)c2Nc2ccc(I)cc2F)C1
study system: Rattus norvegicus
log10 AUCt/dose: 0.01

mol smiles: CC(C)NCC1(O)CN(C(=O)c2ccc(F)c(F)c2Nc2ccc(I)cc2F)C1
study system: Rattus norvegicus
log10 AUCt/dose: -0.60

mol smiles: CCNCC1(O)CN(C(=O)c2ccc(F)c(F)c2Nc2ccc(I)cc2F)C1
study system: Rattus norvegicus
log10 AUCt/dose: -0.07

mol smiles: O=C(c1ccc(F)c(F)c1Nc1ccc(I)cc1F)N1CC(O)C1
study system: Rattus norvegicus
log10 AUCt/dose: -1.30

mol smiles: O=C(c1ccc(F)c(F)c1Nc1ccc(I)cc1F)N1CC(O)([C@@H]2CCCCN2)C1
study system: Rattus norvegicus
log10 AUCt/dose: -0.46

* * *

Recorded Papp values for a group of molecules are listed next.
# test method notes: Apparent permeability across MDCK cells
# Format: ADME, cell-based, Canis lupus familiaris
# condition summary: dog

mol smiles: CCNCC1(O)CN(C(=O)c2ccc(F)c(F)c2Nc2ccc(I)cc2F)C1
Papp: 20.7 ×10⁻⁶ cm/s
--
mol smiles: CC(C)NCC1(O)CN(C(=O)c2ccc(F)c(F)c2Nc2ccc(I)cc2F)C1
Papp: 21 ×10⁻⁶ cm/s
--
mol smiles: O=C(c1ccc(F)c(F)c1Nc1ccc(I)cc1F)N1CC(O)([C@@H]2CCCCN2)C1
Papp: 10.5 ×10⁻⁶ cm/s
--
mol smiles: O=C(c1ccc(F)c(F)c1Nc1ccc(I)cc1F)N1CC(O)C1
Papp: 39.9 ×10⁻⁶ cm/s
--
mol smiles: NCC1(O)CN(C(=O)c2ccc(F)c(F)c2Nc2ccc(I)cc2F)C1
Papp: 4.3 ×10⁻⁶ cm/s
--
mol smiles: C[C@H](N)C1(O)CN(C(=O)c2ccc(F)c(F)c2Nc2ccc(I)cc2F)C1
Papp: 9.9 ×10⁻⁶ cm/s

* * *

# test method notes: Plasma concentration in nude NCr mouse xenografted with human MDA-MB-231T cells at 20 mg/kg, po measured after 24 hrs by LC-MS analysis
# Assay type: ADME, organism-based
# Set-up: dose 20 mg/kg, route oral

mol smiles: O=C(c1ccc(F)c(F)c1Nc1ccc(I)cc1F)N1CC(O)([C@@H]2CCCCN2)C1
unit abbrev: nM
concentration at 24 h: 100
